Where do the numbers come from? From patent US20180171001A1.

Assignment: determine reported neutralization IC50 for the given binders.
study-system: Env of HIV-1 strain R1166.c1 (HIV-1)
experiment: cell-based or functional assay
One number for each entry, in µg/mL.

Worked cases, answers included:
binder	neutralization IC50 / µg/mL
γ46κ5 (antibody, V domains shown) VH: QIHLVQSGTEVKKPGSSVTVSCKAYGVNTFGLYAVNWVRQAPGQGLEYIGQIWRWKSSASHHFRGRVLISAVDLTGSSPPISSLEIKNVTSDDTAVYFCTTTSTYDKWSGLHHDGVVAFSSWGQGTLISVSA VL: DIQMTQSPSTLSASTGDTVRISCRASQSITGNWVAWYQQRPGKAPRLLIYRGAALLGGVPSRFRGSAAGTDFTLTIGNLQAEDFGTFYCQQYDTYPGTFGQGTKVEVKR	0.922
8ANC3430 (antibody, V domains shown) VH: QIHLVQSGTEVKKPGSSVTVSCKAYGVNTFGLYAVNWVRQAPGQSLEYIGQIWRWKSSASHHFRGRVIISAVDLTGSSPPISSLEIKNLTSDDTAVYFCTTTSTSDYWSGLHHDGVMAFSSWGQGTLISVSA VL: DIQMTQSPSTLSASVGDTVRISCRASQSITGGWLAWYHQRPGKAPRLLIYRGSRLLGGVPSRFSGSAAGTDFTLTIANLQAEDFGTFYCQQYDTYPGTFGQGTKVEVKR	3.64
γ20κ18 (antibody, V domains shown) VH: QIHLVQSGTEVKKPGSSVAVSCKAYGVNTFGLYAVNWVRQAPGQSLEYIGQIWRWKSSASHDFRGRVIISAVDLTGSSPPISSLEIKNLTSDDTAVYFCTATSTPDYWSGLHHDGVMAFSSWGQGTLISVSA VL: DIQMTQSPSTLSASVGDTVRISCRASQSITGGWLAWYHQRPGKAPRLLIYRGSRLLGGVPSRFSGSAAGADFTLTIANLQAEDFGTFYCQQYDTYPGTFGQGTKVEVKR	20

Consider now this further binder.
Entry γ15κ3 (antibody, V domains shown) VH: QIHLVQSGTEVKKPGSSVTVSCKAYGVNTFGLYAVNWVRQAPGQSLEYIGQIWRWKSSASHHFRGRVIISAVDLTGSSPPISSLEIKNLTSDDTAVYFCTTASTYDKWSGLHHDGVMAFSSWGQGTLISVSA VL: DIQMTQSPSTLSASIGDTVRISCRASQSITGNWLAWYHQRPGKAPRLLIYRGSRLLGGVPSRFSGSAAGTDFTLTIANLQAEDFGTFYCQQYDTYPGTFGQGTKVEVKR — recorded neutralization IC50 = 3.94
